Quick reference for melting point among some compounds

Consider the reported melting point for these compounds:
compound="CCOc1cc(C(CS(C)(=O)=O)N2C(=O)c3cccc(NC(=O)CCN(C)C)c3C2=O)ccc1OC (centres unmarked) [Example 46]" experimental_value="163 to 165 °C"
compound="CCOc1cc(C(CS(C)(=O)=O)N2C(=O)c3cccc(N(S(C)(=O)=O)S(C)(=O)=O)c3C2=O)ccc1OC (centres unmarked) [Example 69]" experimental_value="277 to 279 °C"
compound="CCOc1cc([C@@H](CC(C)=O)N2C(=O)c3cccc(NC(C)=O)c3C2=O)ccc1OC [Example 27]" experimental_value="81 to 83 °C"

Query: I am curious: what melting point value has been reported for CCOc1cc(C(CS(C)(=O)=O)N2C(=O)c3cccc(-c4nnc(C)o4)c3C2=O)ccc1OC (centres unmarked) [Example 15] ?
Response: 99 to 101 °C

Query: Likewise for "CCOc1cc([C@@H](CS(C)(=O)=O)N2C(=O)c3cccc(NC(=O)CN(C)C)c3C2=O)ccc1OC.Cl" ?
Response: 202 to 204 °C
